Test system: HCT-116
Experiment: Antiproliferative activity against human HCT116 cells by MTT assay
Format: functional
MEASUREMENT TYPE: GI50

CC(=O)OC(C)CC(=O)O[C@H]1C[C@@H]2[C@@]3(C)CCC[C@](C)([C@H](C)OC(C)=O)[C@@H]3CC[C@@]2(C)[C@@H]2C[C@@H](O)C(C(C)=O)=C[C@@]12C (some centres not stated) ... > 30 µM
CC/C1=C/CO[C@@]2(C)[C@@H](O)C[C@@H]3[C@@]4(C)CCC[C@](C)(CC)[C@@H]4CC[C@@]3(C)[C@@H]2CC1 ... > 30 µM
CC(=O)O[C@H]1C[C@@H]2[C@@]3(C)CCC[C@@]4(C[C@@H]4C)[C@@H]3CC[C@@]2(C)[C@@H]2CCC3=C(C(=O)O[C@@H]3C)[C@@]12C ... > 30 µM
CC[C@@]1(C)CCC[C@]2(C)[C@H]3C[C@H](OC(=O)CC(C)O)[C@]45C[C@@H](O)[C@H]4C(C(C)=O)=CC[C@H]5[C@]3(C)CC[C@@H]12 (some centres not stated) ... 14 µM
CC(=O)C1=C[C@@]2(C)[C@@H](OC(=O)CC(C)O)C[C@H]3[C@@](C)(CC[C@@H]4[C@]3(C)CCC[C@@]43C[C@@H]3C)[C@@H]2C[C@H]1O (some centres not stated) ... 6.4 µM

Query: Consider the molecule shown here: CC(O)CC(=O)O[C@H]1C[C@@H]2[C@@]3(C)CCC[C@@]4(C[C@@H]4C)[C@@H]3CC[C@@]2(C)[C@@H]2C[C@@H](O)C3=C([C@H](O)CC3=O)[C@@]12C (some centres not stated) What is its recorded GI50?
Response: > 30 µM

Query: Consider the molecule shown here: CCC(O)CC(=O)O[C@H]1C[C@@H]2[C@@]3(C)CCC[C@](C)([C@H](C)OC(C)=O)[C@@H]3CC[C@@]2(C)[C@@H]2C[C@H](O)C(C(C)=O)=C[C@@]12C (some centres not stated) What is its recorded GI50?
Response: > 30 µM

====

This listing pairs compounds with measured GI50.
Test system: HCT-116
Experiment: Antiproliferative activity against human HCT116 cells by MTT assay
Type: functional

Query: API: value(readout= GI50, system= HCT-116, query= CC(=O)O[C@H]1C[C@@H]2[C@@]3(C)CCC[C@@]4(C[C@@H]4C)[C@@H]3CC[C@@]2(C)[C@@H]2CCC3=C(C(=O)O[C@H]3C)[C@@]12C )
Response: > 30 µM

Query: API: value(readout= GI50, system= HCT-116, query= CCC(=O)O[C@@H](C)[C@@]1(C)CCC[C@@]2(C)[C@H]1CC[C@]1(C)[C@@H]2C[C@H](OC(=O)CC(O)CC)[C@]2(C)C3=C(CC[C@@H]12)[C@H](C)OC3=O (stereo not given in full) )
Response: > 30 µM

====

This listing pairs molecules with measured GI50.
Tested on: HCT-116
Assay: Antiproliferative activity against human HCT116 cells by MTT assay
Format: functional

Worked cases, answers included:
CCC(=O)O[C@@H](C)[C@@]1(C)CCC[C@@]2(C)[C@H]1CC[C@]1(C)[C@@H]2C[C@H](OC(=O)CC(O)CC)[C@]2(C)C3=C(CC[C@@H]12)[C@@H](C)OC3=O (stereo partly drawn) ... > 30 µM
COc1cccc2c1C(=O)c1c(O)c3c(c(O)c1C2=O)C[C@@](O)(C(=O)CO)C[C@@H]3O[C@H]1C[C@H](N)[C@H](O)[C@H](C)O1 ... < 1 µM

The record that follows has no GI50 shown yet.
Query: Consider the molecule shown here: CCC(=O)O[C@H]1C[C@@H]2[C@@]3(C)CCC[C@@]4(C[C@@H]4C)[C@@H]3CC[C@@]2(C)[C@@H]2CCC3=C(C(=O)O[C@H]3C)[C@@]12C What is its recorded GI50?
Response: > 30 µM
